hGLPIR cAMP EC50 ratio: recorded values
- testedTarget: human GLP-1 receptor (human, UniProt P43220 24-463)
- test: cell-based or functional assay

binder | hGLPIR cAMP EC50 ratio
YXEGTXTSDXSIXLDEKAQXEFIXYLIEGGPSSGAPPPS (Aib2; αMeF(2F)6; 4Pal10; αMeL13; K17((2-[2-(2-Amino-ethoxy)-ethoxy]-acetyl)2-(γGlu)-CO-(CH2)18-CO2H); Aib20; D-Glu24; C-terminal NH2) [Peptide 182] | 0.873
YXEGTXTSDHSIXLDEKAQXTFIXYLIEGGPSSGAPPPS (Aib2; αMeF(2F)6; αMeL13; K17((2-[2-(2-Amino-ethoxy)-ethoxy]-acetyl)2-CO-(CH2)18-CO2H); Aib20; D-Glu24; C-terminal NH2) [Peptide 174] | 0.0968
YXEGTXTSDYSILLDKIAQXAFIEYLIKGG (Aib2; αMeF6; Aib20; K28((2-[2-(2-Amino-ethoxy)-ethoxy]-acetyl)2-(γGlu)-CO-(CH2)18-CO2H); C-terminal NH2) [Peptide 95] | 0.0576
YXEGTXTSDYSIXLDKKAQXAFIEYLIEAGPSSGAPPPS (Aib2; αMeF6; αMeL13; K17((2-[2-(2-Amino-ethoxy)-ethoxy]-acetyl)2-(γGlu)-CO-(CH2)18-CO2H); Aib20; C-terminal NH2) [Peptide 126] | 0.869
